assay system: CLEC9A; further: reference of the scale not given here
assay procedure: pooled miR-30 sensor sort-seq; sequence = guide strand
conditions used: shRNA
assay endpoint: sensor-assay potency score (higher = more potent)
Give bare numbers.

Example cases with answers are listed next.
>  <seq string>
TCACAAGACAGCATGCTCCTGA

>  <numeric result>
0.87

$$$$
>  <seq string>
TTTTCTTGCTGCTGCATCGCAA

>  <numeric result>
-0.454

$$$$
>  <seq string>
TAAACAATTCTCTTGACTGGTG

>  <numeric result>
-0.135

$$$$
>  <seq string>
TAGCTGACTGGGATCTCTCTGC

>  <numeric result>
-0.395

$$$$
>  <seq string>
TTTGTAGCAGCGTGGAACCTTC

>  <numeric result>
-0.937

$$$$

Req: Using known records, supply sensor-assay potency score (higher = more potent) for TTAAACAATTCTCTTGACTGGT
Resp: -0.125
